System: Serine/threonine-protein kinase mTOR (Rattus norvegicus, UniProt P42346) | Read-out: log10 of IC50
Metric: log10 of IC50 (log10 of the value in nM)

- Molecule: "CNC(=O)Nc1ccc(-c2nc(N3CC4CCC(C3)O4)nc(N3CC4CCC(C3)O4)n2)cc1"
  Target entity: "Serine/threonine-protein kinase mTOR (Rattus norvegicus, UniProt P42346)"
  log10 of IC50: 0.40
- Molecule: "CN1CCN(c2ccc(NC(=O)Nc3ccc(-c4nc(N5CC6CCC(C5)O6)nc(N5CC6CCC(C5)O6)n4)cc3)cc2)CC1"
  Target entity: "Serine/threonine-protein kinase mTOR (Rattus norvegicus, UniProt P42346)"
  log10 of IC50: 0.23
- Molecule: "FC(F)c1nc2ccccc2n1-c1nc(N2CCOCC2)nc(N2CCOCC2)n1 [ZSTK-474]"
  Target entity: "Serine/threonine-protein kinase mTOR (Rattus norvegicus, UniProt P42346)"
  log10 of IC50: 1.65
- Molecule: "FC(F)c1nc2ccccc2n1-c1nc(N2CCOCC2)nc(N2CC3CCC(C2)O3)n1"
  Target entity: "Serine/threonine-protein kinase mTOR (Rattus norvegicus, UniProt P42346)"
  log10 of IC50: 1.78
- Molecule: "O=C(Nc1ccc(-c2nc(N3CC4CCC(C3)O4)nc(N3CC4CCC(C3)O4)n2)cc1)NC1CC1"
  Target entity: "Serine/threonine-protein kinase mTOR (Rattus norvegicus, UniProt P42346)"
  log10 of IC50: 0.41
- Molecule: "CN1CCN(c2ccc(NC(=O)Nc3ccc(-c4nc(N5CC6CCC(C5)O6)nc(N5C6CCC5COC6)n4)cc3)cc2)CC1"
  Target entity: "Serine/threonine-protein kinase mTOR (Rattus norvegicus, UniProt P42346)"
  log10 of IC50: 0.30

Recorded values, source ChEMBL document CHEMBL1156972.
